target: GST-Ubr-box of Ubr1 (Homo sapiens (Human))
Sequence (Q8IWV7 other isoform, or with tags, fused parts or gaps): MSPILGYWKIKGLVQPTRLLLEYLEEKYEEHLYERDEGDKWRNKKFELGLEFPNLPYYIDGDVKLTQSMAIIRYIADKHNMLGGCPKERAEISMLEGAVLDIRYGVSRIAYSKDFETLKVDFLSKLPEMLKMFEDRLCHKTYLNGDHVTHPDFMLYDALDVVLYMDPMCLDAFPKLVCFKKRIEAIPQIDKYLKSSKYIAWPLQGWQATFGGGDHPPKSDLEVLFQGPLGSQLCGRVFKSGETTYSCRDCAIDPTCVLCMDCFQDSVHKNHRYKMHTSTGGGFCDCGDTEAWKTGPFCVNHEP
Non-standard residues stand in square brackets, D forms with d. Residues, ends and D or L forms follow the SMILES beside them. Arg(Me2a) = CN(C)C(=N)NCCC[C@H](N)C(=O)O
Property Label: Ki

Compound: COc1ccc(C[C@H](NC(=O)[C@@H](N)CCCNC(=N)N(C)C)C(=O)N[C@@H](Cc2ccccc2)C(N)=O)cc1 [Compound 15] (H-[Arg(Me2a)]-Tyr(Me)-Phe-NH2)
Ki: < 1000 nM
--
Compound: N=C(NCCC[C@H](N)C(=O)N[C@@H](Cc1ccc(O)c([N+](=O)[O-])c1)C(=O)N[C@@H](Cc1ccccc1)C(N)=O)NCC(F)(F)F
Ki: < 1000 nM
--
Compound: CN(C)C(=N)NCCC[C@H](N)C(=O)N[C@@H](Cc1cccs1)C(=O)N[C@@H](Cc1ccccc1)C(N)=O
Ki: < 1000 nM
--
Compound: N=C(N)NCCC[C@H](N)C(=O)N[C@@H](Cc1ccc(O)c([N+](=O)[O-])c1)C(=O)N[C@@H](Cc1ccccc1)C(N)=O
Ki: 1000 to 10000 nM
--
Compound: COc1ccc(C[C@H](NC(=O)[C@@H](N)CCCNC(=N)NCC(F)(F)F)C(=O)N[C@@H](Cc2ccccc2)C(N)=O)cc1
Ki: < 1000 nM
--
Compound: CC(C[C@H](NC(=O)[C@@H](N)CCCNC(=N)N)C(=O)N[C@@H](Cc1ccccc1)C(N)=O)C(F)(F)F (stereo partly shown)
Ki: < 1000 nM

Shifting focus to the compound that follows.
Query: Fill in: Ki of CC[C@H](C)[C@H](NC(=O)[C@@H](N)CCCN(C)C(=N)NC)C(=O)N[C@@H](Cc1ccccc1)C(N)=O is ___
Result: > 100000 nM

Origin of values: patent US20250186562A1
